- TESTED_ON: T1, CH2-4 constant domains of human IgE linked to a transmembrane protein, on 293 cells (human, UniProt P01854-1 104-428)
- T1 construct: domain: CH2-4 constant domains; also called human IgE-expressing 293 cells
- PROCEDURE_DETAILS: flow cytometry, 293 cells expressing human IgE CH2-4
- Experimental: First, 25 μg of DNA was added to Opti-MEM Reduced Serum Medium (Gibco) mixed with 75 μL of 40 kDa Polyethylenimine (PEI) for a final concentration of 1 μg DNA and 2.5 μg PEI per mL of culture volume. […] Cell pellets were resuspended in 30 μL FACS Buffer and analyzed on an iQue Screener Plus flow cytometer (Sartorius, IntelliCyt) with a 1 second sip time and 1 second void time. Mean fluorescent intensity was calculated using iQue onboard software gating on GFP+ or citrine+ cells.
Classify: 1 (yes) when Kd is strictly less than 2 nM; 0 (no) when Kd is not.

**Q:** Determine whether this binder shows Kd lower than 2 nM (ties excluded): Anti-IgE sdAb B10 (parental B10 VHH, dimeric VHH-hIgG1-Fc xELL fusion) (Fc fusion) EVQLVQSGGELVQAGGSLRLSCVASGLTFSSYNMGWLRQAPGKEREFVGMSGSSSTSTYYADSVKGRFTISRDNSKNTVYLQMNSLKPEDTAVYYCAARRMLSTYWSDRSWDFWGQGTQVTVKPDKTHTCPPCPAPGGPSVFLFPPKPKDTLMISRTPEVTCVVVDVSHEDPEVKFNWYVDGVEVHNAKTKPREEQYNSTYRVVSVLTVLHQDWLNGKEYKCKVSNKALPAPIEKTISKAKGQPREPQVYTLPPSRDELTKNQVSLTCLVKGFYPSDIAVEWESNGQPENNYKTTPPVLDSDGSFFLYSKLTVDKSRWQQGNVFSCSVMHEALHNHYTQKSLSLSPGK
**A:** 1 (yes)

**Q:** Report whether reported Kd is lower than 2 nM (strictly) for hzB10v13-NNT (Fc fusion, monomeric) VHH-Fc: EVQLVQSGGELVQAGGSLRLSCVASGLTFSSYNMGWLRQAPGKEREFVGMSGSSSTSTYYAESVKGRFTISRDNAKNTVYLQMNSLKPEDTAVYYCAARRMLSTYWSDRSWDFWGQGTQVTAKPGGPSVFLFPPKPKDTLMISRTPEVTCVVVDVSHEDPEVKFNWYVDGVEVHNAKTKPREEQYNSTYRVVSVLTVLHQDWLNGKEYKCKVSNKALPAPIEKTISKAKGQPREPQVYTLPPSRDELTKNQVNLTCLVKGFYPSDIAVEWESNGQPENNYKTTPPVLDSDGSFFLNSTLTVDKSRWQQGNVFSCSVMHEALHNHYTQKSLSLSPGK
**A:** 0 (no)

**Q:** Consider hzB10v12-NNT (Fc fusion, monomeric) VHH-Fc: EVQLVQSGGELVQAGGSLRLSCVASGLTFSSYNMGWLRQAPGKEREFVGMSGSSSTSTYYADSVKGRFTISRDNSKNTVYLQMNSLKPEDTAVYYCAARRVLSTYWSDRSWDFWGQGTQVTVKPGGPSVFLFPPKPKDTLMISRTPEVTCVVVDVSHEDPEVKFNWYVDGVEVHNAKTKPREEQYNSTYRVVSVLTVLHQDWLNGKEYKCKVSNKALPAPIEKTISKAKGQPREPQVYTLPPSRDELTKNQVNLTCLVKGFYPSDIAVEWESNGQPENNYKTTPPVLDSDGSFFLNSTLTVDKSRWQQGNVFSCSVMHEALHNHYTQKSLSLSPGK . Does its Kd lie strictly below 2 nM?
**A:** 0 (no)

**Q:** Confirm or reject: Kd of hzB10v10-NNT (Fc fusion, monomeric) VHH-Fc: EVQLVQSGGELVQAGGSLRLSCVASGLTFSSYNMGWLRQAPGKEREFVGMSGSSSTSTYYADSVKGRFTISRDNSKNTVYLQMNSLKPEDTAVYYCAARRLLSTYWSDRSWDFWGQGTQVTAKPGGPSVFLFPPKPKDTLMISRTPEVTCVVVDVSHEDPEVKFNWYVDGVEVHNAKTKPREEQYNSTYRVVSVLTVLHQDWLNGKEYKCKVSNKALPAPIEKTISKAKGQPREPQVYTLPPSRDELTKNQVNLTCLVKGFYPSDIAVEWESNGQPENNYKTTPPVLDSDGSFFLNSTLTVDKSRWQQGNVFSCSVMHEALHNHYTQKSLSLSPGK lies strictly below 2 nM
**A:** 1 (yes)

**Q:** Please check: Kd for hzB10v11-NNT (Fc fusion, monomeric) VHH-Fc: EVQLVQSGGELVQAGGSLRLSCVASGLTFSSYNMGWLRQAPGKEREFVGMSGSSSTSTYYADSVKGRFTISRDNSKNTVYLQMNSLKPEDTAVYYCAARRILSTYWSDRSWDFWGQGTQVTVKPGGPSVFLFPPKPKDTLMISRTPEVTCVVVDVSHEDPEVKFNWYVDGVEVHNAKTKPREEQYNSTYRVVSVLTVLHQDWLNGKEYKCKVSNKALPAPIEKTISKAKGQPREPQVYTLPPSRDELTKNQVNLTCLVKGFYPSDIAVEWESNGQPENNYKTTPPVLDSDGSFFLNSTLTVDKSRWQQGNVFSCSVMHEALHNHYTQKSLSLSPGK , strictly under 2 nM or not?
**A:** 0 (no)

**Q:** Is Kd of hzB10v8-NNT (Fc fusion, monomeric) VHH-Fc: EVQLVQSGGELVQAGGSLRLSCVASGLTFSSYNMGWLRQAPGKEREFVGISGSSSTSTYYADSVKGRFTISRDNSKNTVYLQMNSLKPEDTAVYYCAARRMLSTYWSDRSWDFWGQGTQVTVKPGGPSVFLFPPKPKDTLMISRTPEVTCVVVDVSHEDPEVKFNWYVDGVEVHNAKTKPREEQYNSTYRVVSVLTVLHQDWLNGKEYKCKVSNKALPAPIEKTISKAKGQPREPQVYTLPPSRDELTKNQVNLTCLVKGFYPSDIAVEWESNGQPENNYKTTPPVLDSDGSFFLNSTLTVDKSRWQQGNVFSCSVMHEALHNHYTQKSLSLSPGK strictly below 2 nM?
**A:** 0 (no)

Reference source for all entries: patent US20250163186A1
